Reference source for all entries: patent US20090042785A1

- test target: T1, human CTLA-4-Fc (Chimerigen) (human, UniProt P16410 36-161; P01857 99-330 = IgG part, limits assumed)
- T1 construct: extracellular domain;domain: Fc portion; Bought protein; also called hCTLA-4-Fc; huCTLA-4-Ig
- T1 sequence (P16410 other isoform, or with tags, fused parts or gaps mutant limits assumed): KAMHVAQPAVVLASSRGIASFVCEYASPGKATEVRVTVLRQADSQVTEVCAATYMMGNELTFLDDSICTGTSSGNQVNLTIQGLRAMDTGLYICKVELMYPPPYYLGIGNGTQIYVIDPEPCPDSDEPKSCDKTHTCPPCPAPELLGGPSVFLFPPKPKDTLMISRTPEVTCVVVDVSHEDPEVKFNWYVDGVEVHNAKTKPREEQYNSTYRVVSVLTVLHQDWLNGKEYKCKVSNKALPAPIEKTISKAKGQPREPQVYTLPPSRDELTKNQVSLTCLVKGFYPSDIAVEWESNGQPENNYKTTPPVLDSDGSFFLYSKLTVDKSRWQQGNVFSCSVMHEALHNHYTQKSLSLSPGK
- experimental protocol: SPR, Fc fusion captured via anti-human IgG Fc
Quick list: kon per entry.
Enter your answer as a number in M⁻¹ s⁻¹; do not include the unit.

Consider the following illustrative entries.
>>> observed_result("hNGAL mutein S94.7-Q13 (designed binder, also called CTLA-4-Q13) QDSTSDLIPAPPLSKVPLQQNFQDNQFHGKWYVVGLAGNRILRDDQHPMNMYATIYELKEDKSYNVTSVIFPHKKCEYTIATFVPGSQPGEFTLGNIKSYGDKTSYLVRVVSTNYNQHATVFFKLAEDNAEFFAITIYGRTKELASELKENFIRFSKSLGLPENHIVFPVPIDQCIDGSAWSHPQF")
6000
>>> observed_result("hNGAL mutein F92.1-J08 (designed binder, also called CTLA-4-J08) QDSTSDLIPAPPLSKVPLQQNFQDNQFHGKWYVVGLAGNRILRDDQHPMNMYATIYELKEDKSYNVTSVIFPHKKCEYTIATFVPGSQPGEFTLGNIKSYGDKTSYLVRVVSTNYNQYAVVFFKLAEDNAEFFAITIYGRTKELASELKENFIRFSKSLGLPENHIVFPVPIDQCIDGSAWSHPQF")
9240
>>> observed_result("hNGAL mutein S67.3-C21 (designed binder) QDSTSDLIPAPPLSKVPLQQNFQDNQFHGKWYVVGLAGNYIWRNDRYPMQMYATIYELKEDKSYNVTSVIFDTKKCEYPIATFVPGSQPGEFTLGNIKSYRMDTSYLVRVVSTNYNQHAMVFFKQVNHNTEHFAITIYGRTKELASELKENFIRFSKSLGLPENHIVFPVPIDQCIDGSAWSHPQF")
16000

Continue with the next binder.
Q: Returns the measured kon for the input binder. Input: hNGAL mutein S67.2-F03 (designed binder) QDSTSDLIPAPPLSKVPLQQNFQDNQFHGKWYVVGLAGNRILRDDQHPMNMYATIYELKEDKSYNVTSVIFPHKKCEYTIATFVPGSQPGEFTLGNIKSYGDKTSYLVRVVSTNYNQHAMVFFKLVEDNAEFFAITIYGRTKELASELKENFIRFSKSLGLPENHIVFPVPIDQCIDGSAWSHPQF
Ans: 7030
